Entries and their EC50
Target: human GPBAR1 receptor (Homo sapiens (Human))
Sequence (Q8TDU6 whole entry): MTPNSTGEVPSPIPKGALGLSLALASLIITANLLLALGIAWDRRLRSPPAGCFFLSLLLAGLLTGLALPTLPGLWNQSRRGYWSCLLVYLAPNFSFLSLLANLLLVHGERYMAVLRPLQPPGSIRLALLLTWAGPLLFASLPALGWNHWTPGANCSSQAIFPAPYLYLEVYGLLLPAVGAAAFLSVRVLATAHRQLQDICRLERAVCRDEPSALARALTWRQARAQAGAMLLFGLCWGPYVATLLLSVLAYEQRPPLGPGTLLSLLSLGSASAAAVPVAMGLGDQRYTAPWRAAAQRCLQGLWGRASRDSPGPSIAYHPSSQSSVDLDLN
Experiment: functional cAMP assay in CHO-dhfr(minus) cells expressing human GPBAR1 receptors
Conditions: CHO-dhfr(minus) cells expressing human GPBAR1, 30 min at 30° C.
endpointName: EC50 (nM)

COc1ncccc1-c1ccncc1N(CCS(C)(=O)=O)C(=O)c1cc(C(F)(F)F)nc(C(F)(F)F)c1 :: 281
COc1cc(F)c(F)cc1-c1ccncc1N(CC(F)(F)F)C(=O)c1cc(C(F)(F)F)cc(S(C)(=O)=O)c1 :: 606
Cc1ccccc1-c1ccncc1N(C)C(=O)c1cc(C(F)(F)F)cc(C(F)(F)F)n1 :: 89
COc1cc(F)ccc1-c1ccncc1N(C)C(=O)c1cc(C2CN(C(=O)OC(C)(C)C)C2)cc(C(F)(F)F)c1 :: 933
COc1cc(F)ccc1-c1ccncc1N(C)C(=O)c1cc(SCCN)cc(C(F)(F)F)c1 :: 340
CN(C(=O)c1cc(C(F)(F)F)cc(S(C)(=O)=O)c1)c1cnccc1-c1ccccc1Cl :: 107
COc1cc(C(=O)N(C)c2cnccc2-c2ccc(F)cc2OC)cc(Cl)n1 :: 92
CS(=O)(=O)c1cc(C(=O)N(CC(F)(F)F)c2cnccc2-c2ccccc2OC(F)(F)F)cc(C(F)(F)F)c1 :: 788
Cc1cc(F)ccc1-c1ccncc1N(C)C(=O)c1cc(Cl)cc(Cl)c1 :: 146
COc1cc(F)ccc1-c1ccncc1N(C)C(=O)c1cc(C(F)(F)F)cc(S(=O)(=O)N2CCC2)c1 :: 19
Cc1cc(C)nc(C(=O)N(C)c2cnccc2-c2ccccc2C)c1 :: 1920
CN(C(=O)c1cc(C(F)(F)F)cc(C(F)(F)F)c1)c1cnccc1C1=CCOCC1 :: 1780
COc1cc(F)ccc1-c1ccncc1N(C)C(=O)c1cc(SCCNS(N)(=O)=O)cc(C(F)(F)F)c1 :: 190
COC(=O)CN(C(=O)c1cc(C(F)(F)F)cc(S(=O)(=O)N(C)C)c1)c1cnccc1-c1cccnc1OC :: 49
CN(C(=O)c1cc(C(F)(F)F)cc(S(C)(=O)=O)c1)c1cnccc1-c1ccccc1OC1CCC1 :: 8
CN(C(=O)c1cc(C(F)(F)F)cc(C(F)(F)F)c1)c1cnccc1-c1ccccc1C#N :: 362

Recorded values, source patent US10385022B2.
